target: T1, human PCSK9 (proprotein convertase subtilisin kexin type 9) (human, UniProt Q8NBP7 31-692); assay: BLI, biotinylated hPCSK9 on sensor tips
T1 construct: Directly immobilized (SPR ProteOn), biotinylated (BLI), or in solution, depending on the assay; also called hPCSK9
T1 sequence (Q8NBP7 31-692 limits assumed): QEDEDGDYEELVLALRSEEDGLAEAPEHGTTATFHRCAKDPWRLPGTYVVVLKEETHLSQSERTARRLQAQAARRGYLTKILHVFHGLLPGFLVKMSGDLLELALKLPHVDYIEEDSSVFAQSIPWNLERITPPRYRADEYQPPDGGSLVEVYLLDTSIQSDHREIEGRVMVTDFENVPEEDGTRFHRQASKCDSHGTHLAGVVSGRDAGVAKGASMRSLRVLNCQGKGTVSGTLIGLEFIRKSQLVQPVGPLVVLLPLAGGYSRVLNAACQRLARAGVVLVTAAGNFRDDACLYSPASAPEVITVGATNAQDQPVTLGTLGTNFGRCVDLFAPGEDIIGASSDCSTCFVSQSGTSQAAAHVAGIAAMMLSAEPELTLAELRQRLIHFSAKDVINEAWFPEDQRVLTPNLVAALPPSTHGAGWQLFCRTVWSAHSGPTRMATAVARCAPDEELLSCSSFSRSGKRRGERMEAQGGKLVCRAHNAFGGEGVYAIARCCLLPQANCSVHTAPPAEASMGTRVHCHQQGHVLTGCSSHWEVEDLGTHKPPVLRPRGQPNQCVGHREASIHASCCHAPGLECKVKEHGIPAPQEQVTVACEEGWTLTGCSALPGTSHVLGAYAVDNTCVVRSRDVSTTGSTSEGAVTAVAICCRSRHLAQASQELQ
Give measured Kd for each item. Keep answers brief.
One number for each entry, in pM.

[
  {
    "binder": "2381D04 (designed binder, Anti-PCSK9 Adnectin, His6-tagged) MGVSDVPRDLEVVAATPTSLLISWEPFSRLPGGGEYYRITYGETGGNSPLQQFTVPGSKGTATISGLKPGVDYTITVYAVEFPYDHSGYYHRPISINYRTEIDKPSQHHHHHH",
    "propertyName": "Kd",
    "assayResult": 237
  },
  {
    "binder": "2382C05 (designed binder, Anti-PCSK9 Adnectin, His6-tagged) MGVSDVPRDLEVVAATPTSLLISWDAPADGAYGYYRITYGETGGNSPVQEFTVPVSKGTATISGLKPGVDYTITVYAVEYSFPGAGYYHRPISINYRTEIDKPSQHHHHHH",
    "propertyName": "Kd",
    "assayResult": 2490
  },
  {
    "binder": "2382B09 (designed binder, Anti-PCSK9 Adnectin, His6-tagged) MGVSDVPRDLEVVAATPTSLLISWDAPADAYGYYRITYGETGGNSPVQEFTVPVSKGTATISGLKPGVDYTITVYAVEFDYPGSGYYHRPISINYRTEIDKPSQHHHHHH",
    "propertyName": "Kd",
    "assayResult": 656
  }
]

Now look at this entry.
Entry ATI001117 (designed binder, PEGylated on the cysteine of the C-terminal tail (marked by asterisk in Table 5 as having been pegylated; PEG not specified), Anti-PCSK9 Adnectin, cysteine mutant of 2011H05, His6-tagged; also called 2011H05 Cys mut) MGVSDVPRDLEVVAATPTSLLISWVPSSHAYGYYRITYGETGGNSPVQEFTVPVGVGTATISGLKPGVDYTITVYAVEYAFEGAGYYHRPISINYRTGSGCHHHHHH , Kd reported as 554
